# credit: the supplement of paper PMC10724198

System: Saccharomyces cerevisiae
Assay: protein stability index of tFT-peptide fusion (C-terminal peptide) (PSI (0-1 scale)); higher = more stable (slower turnover)
Conditions: genetic background: das1 deletion; temperature: 30 C
Would you mind telling me the reported protein stability index of each entry?

Illustrative cases are given below, each with its answer.
LLMFWLSIWFWG    0.245
RHTVFFCQLLLV    0.307
GCGFSFFHIVVL    0.147
LCFRLVSYLCIN    0.591
VCMHIVLLAASP    0.187

Please state protein stability index for every sequence in the list that follows.
1. CFPFYVSCLLVL
2. RYTWHGICIVTR
3. SGCWGRRLWFFN
4. RARRFGKWERSG
5. VPTRRRGNRRPA
6. VIYYVRVGLVLS

[0.281, 0.312, 0.66, 0.639, 0.639, 0.119]

====

Tested on: Saccharomyces cerevisiae
Assay: protein stability index of tFT-peptide fusion (C-terminal peptide) (PSI (0-1 scale)); higher = more stable (slower turnover)
Details: genetic background: das1 deletion; temperature: 30 C
Respond with fulfilled for protein stability index values of 0.7 and above, not fulfilled for values below.

# count of solved cases: 3
MKLFEENKKEEE [PET111 C-terminal 12 aa]    fulfilled
LTSIWKTILFFK [YEL076C C-terminal 12 aa]    not fulfilled
QFAQDTLKNFVQ [SAM35 C-terminal 12 aa]    fulfilled

Identify whether the reported protein stability index of the following sequence is 0.7 or greater: HTSVKALQRMTW [CTH1 C-terminal 12 aa]
fulfilled

Determine whether this sequence has protein stability index no lower than 0.7: KFAKANIGYVMG [RPN4 C-terminal 12 aa]
not fulfilled

hey, is protein stability index for this one >= 0.7? FGTWEIVIRLLS [RIM2 C-terminal 12 aa]
not fulfilled

Test whether the sequence ERAYMYYLRNGK [NAM9 C-terminal 12 aa] records protein stability index of 0.7 or higher.
not fulfilled

Does the reported protein stability index for YLKEYEFSQKDF [PFS1 C-terminal 12 aa] fall at or above the 0.7 mark?
fulfilled

====

Test system: Saccharomyces cerevisiae
Assay: protein stability index of tFT-peptide fusion (C-terminal peptide) (PSI (0-1 scale)); higher = more stable (slower turnover)
Settings: genetic background: wild type; temperature: 30 C
Could you please report measured protein stability index for the items listed next?
Answers are plain numbers.

Solved entries (count: 4):
SFFGYPCFLLSI    0.54
GGGWGRSKTETT    0.672
GDSGPDDDLGIS    0.667
PFVSHLDRWDIR    0.712

Alright, here's another sequence for you.
Provide protein stability index, tested on Saccharomyces cerevisiae, for "MYHGKKTAGINV" .
0.7

====

System: Saccharomyces cerevisiae
Assay: protein stability index of tFT-peptide fusion in deletion strain of DOA10 (PSI (0-1 scale)); higher = more stable (slower turnover)
Readout Label: protein stability index

The examples below pair each entry with its known result.
GLYQCSVGCWFR    0.676
RVTRLDAIYFRIP    0.371
AITLPMCWLLLR    0.736
RSLRVQLPLYFR    0.685
CLVSLPSLLFFR    0.667

I would be grateful if you could provide protein stability index for each of the following entries.
1. CLVSLPILWFFR
2. GLWMCSVGCWFR
3. RVTRLDAIYFRIV
4. RVTRLDALYFRI
5. CLVSLPILLVFR
6. RSLRVLLTLYFR

1: 0.61; 2: 0.54; 3: 0.114; 4: 0.705; 5: 0.527; 6: 0.511

====

System: Saccharomyces cerevisiae
Assay: protein stability index of tFT-peptide fusion (C-terminal peptide) (PSI (0-1 scale)); higher = more stable (slower turnover)
Conditions: genetic background: wild type; temperature: 30 C
What protein stability index was measured for each of the following?
Answers are plain numbers.

Past entries and their recorded results:
QNNRKEIKRNEI    0.666
CGVGGVRCGLLG    0.667

Now consider the entry below.
Input "ISRLLVLCRDLT" , output reported protein stability index.
0.65

====

Would you mind telling me the reported protein stability index of each entry?
Test system: Saccharomyces cerevisiae
Assay: protein stability index of tFT-peptide fusion (C-terminal peptide) (PSI (0-1 scale)); higher = more stable (slower turnover)
Conditions: genetic background: cdc53-1; temperature: 37 C
Answers are plain numbers.

Consider the worked cases shown below.
SLRKRILCRFEY    0.708
RDPLAPLLLAIP    0.717

Hey, quick one: what's protein stability index for each of these?
1. RGLANLIVIVSS
2. YILLRWVNLSCL

1. 0.602
2. 0.587

Could you report protein stability index for every entry in the following list?
1. SIIRHLFHPSST
2. LLLTAIRVLRMH

1. 0.718
2. 0.705

====

System: Saccharomyces cerevisiae
Assay: protein stability index of tFT-peptide fusion (C-terminal peptide) (PSI (0-1 scale)); higher = more stable (slower turnover)
Details: genetic background: cdc34-1; temperature: 37 C
Readout Label: protein stability index
Numbers only.

VGSSSGRLLYLC    0.595

Provide reported protein stability index for each item, in the same order as listed.
1. FPYARHLSVLLL
2. PKRNNRKAQQIS

[0.598, 0.61]

====

Tested on: Saccharomyces cerevisiae
Assay: protein stability index of tFT-peptide fusion (C-terminal peptide) (PSI (0-1 scale)); higher = more stable (slower turnover)
Details: genetic background: wild type; temperature: 30 C
Readout Label: protein stability index
Give bare numbers.

LCVVRGLLCSPL    0.628
RFHTFVFCLLCL    0.328
PPSPDATPLSHI    0.678
LPTLPLPHRHHL    0.742
AIRGGPGGDKEP    0.682
GQHAAVNASVVR    0.665

Fill in protein stability index for each of the 2 sequences listed.
1. NVRVLKCLWGVG
2. LRCRLCRFFPFL

0.619
0.714

====

Test system: Saccharomyces cerevisiae
Test: protein stability index of tFT-peptide fusion (C-terminal peptide) (PSI (0-1 scale)); higher = more stable (slower turnover)
Settings: genetic background: wild type; temperature: 37 C
protein stability index class ranges: lower band (below 0.3), central band (0.3 to below 0.5), upper band (0.5 or more)

RLILAIVVSGGL    central band
FLFPFLSVLFLL    lower band
PPLPPPPASVPP    upper band
PYPPTSLPPTWQ    upper band
LFSCTQLLPITA    lower band

Lab note: sort "DVVVIFGILCYC" into the matching protein stability index band.
lower band

Looking at "CFLLVSLGILCW" , which class would you pick?
lower band

Just checking, what class would you give "LFTSGNSLVLVH" here?
central band

Given "GILLLLISRVVF" , name the class its protein stability index places it in.
central band

Assign a category based on measured protein stability index for "FLFSVVFFFFSL" and give only the class name.
central band

Lab note: sort "GVFLVWWVGFWV" into the matching protein stability index band.
central band

====

Please go through the items and note down their protein stability index.
Test system: Saccharomyces cerevisiae
Test: protein stability index of tFT-peptide fusion (C-terminal peptide) (PSI (0-1 scale)); higher = more stable (slower turnover)
Conditions: genetic background: cdc34-1; temperature: 37 C
One number for each entry.

LQIKSFTSQRLA    0.509
CPPPPPSLLLLC    0.531

Dear colleague, could you send me protein stability index for each of the items below? Thanks.
1. FFFVLVSGWWGV
2. LFLSIFFFHLLF
3. ISFQFFVCLCAR

0.181
0.314
0.13

// each sequence listed below needs its protein stability index
1. VVVHFVLVCSTS
2. VRFLSLNVLFFC
3. WVSFYLLFFFSF
4. FRVSAFFLPFLS

1: 0.0899; 2: 0.54; 3: 0.459; 4: 0.652

====

Test system: Saccharomyces cerevisiae
Test: protein stability index of tFT-peptide fusion (C-terminal peptide) (PSI (0-1 scale)); higher = more stable (slower turnover)
Conditions: genetic background: cdc34-1; temperature: 37 C
Readout Label: protein stability index
Numbers only.

Solved entries (count: 3):
LCFRLVSYLCIN    0.497
FSVLLLANFCFF    0.498
RVVITYLVLSNR    0.648

Lab note: each sequence below needs its protein stability index filled in.
1. AFSISPFRLRMV
2. VSFGELGVEVVG
3. RRLRPQTVAFLS
4. FVLLSVCFFGCL
5. YQKIARVSLAVS

1. 0.642
2. 0.709
3. 0.593
4. 0.306
5. 0.466

====

System: Saccharomyces cerevisiae
Experiment: protein stability index of tFT-peptide fusion (C-terminal peptide) (PSI (0-1 scale)); higher = more stable (slower turnover)
Details: genetic background: cdc34-1; temperature: 37 C
Readout Label: protein stability index

Would you mind listing protein stability index for each of the following sequences?
1. LPPSPPAPLSRL
2. YVIGLLFVVSGV
3. LNVEEGGGLENV
4. LWVTRVYCLLVC
5. FIRLTFLRLSCI

0.906
0.265
0.698
0.0444
0.546

Give me protein stability index for each of these sequences, listed below.
1. VCMHIVLLAASP
2. VVGLSLLFSGGV
3. WFLLSLSSFVSS
4. LFLLSHYALCFY
5. PFFLLAGITVAC
6. CLFSPFCFILFC
7. GLLLVWAALGFV

0.244
0.687
0.427
0.523
0.0507
0.0319
0.343

Would you be so kind as to report protein stability index for each listed record?
1. VAWWVCIRSCCG
2. RGLANLIVIVSS
3. IYEAFLVFCLCG

0.51
0.572
0.426
